Assay: solvent given as SMILES
Details: in CCO
measured.parameter: absorption maximum (nm)
The reply should contain only the number, in nm.

Q: Identify the reported absorption maximum for the following entry. O=P1(c2ccccc2)C2=C(c3ccccc31)S(=O)(=O)c1ccccc12 (configuration not stated)
A: 386

Q: Identify the reported absorption maximum for the following entry. CCOC(=O)c1cc(C(=O)O)nc2cc(OC)ccc12
A: 349

Q: Identify the reported absorption maximum for the following entry. O=C1c2ccccc2C(=O)N1c1ccc(Cn2cncn2)cc1
A: 308

Q: Identify the reported absorption maximum for the following entry. O=C(O)c1cc2c(ccc3ccccc32)oc1=O
A: 363

Q: Identify the reported absorption maximum for the following entry. COCCOc1cc(C=O)c(OCCOC)cc1C=O
A: 362

Q: Identify the reported absorption maximum for the following entry. COc1ccc2c(c1)CCc1c-2nc(N)c(C#N)c1-c1ccc(Br)cc1
A: 370

Q: Identify the reported absorption maximum for the following entry. CCOC(=O)/C=C/c1cc2ccc(O)cc2oc1=O
A: 367

Q: Identify the reported absorption maximum for the following entry. CC/C=C/C=C/C=C/C=C/CCCCCCCC(=O)O
A: 313.8

Q: Identify the reported absorption maximum for the following entry. CNC1=C2C=CC=[N+]2[B-](F)(F)n2cccc21
A: 397

Q: Identify the reported absorption maximum for the following entry. N#Cc1ccc(N)c2nonc12
A: 430

Q: Identify the reported absorption maximum for the following entry. Cc1ccc2cc3cc(C)ncc3cc2c1
A: 383.73

Q: Identify the reported absorption maximum for the following entry. CC(C)(C)Nc1cc2oc3cc(NC(C)(C)C)c(F)cc3c(=O)c2cc1F
A: 368
